Data provenance is patent US20220332800A1.

biological target: T1, ZIKV-VLP (Native Antigen Inc.) (Zika virus); experiment: BLI binning on ZIKV-VLP; 1st mAb: 329-2
T1 construct: also called Zika VLP; ZVLP
endpoint label: response of 2nd mAb
Could you keep your reply to the number by itself?

anti-ZIKV antibody 306-2 (antibody, V domains shown) VH: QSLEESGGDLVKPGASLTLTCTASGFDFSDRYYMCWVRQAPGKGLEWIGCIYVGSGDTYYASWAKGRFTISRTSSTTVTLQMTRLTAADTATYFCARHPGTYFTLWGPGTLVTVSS VL: DVVMTQTPSSVSAAVGGTVTINCQASQNIVNNLAWYQQRPGQPPKLLIYDTSTLASGVPSRFKGSGSGTEFTLTISDLECADAATYYCQTYYYYNKIINGFGGGTEVVVKG: -0.03
anti-ZIKV antibody 242-3 (antibody, V domains shown, also called clone 242-3) VH: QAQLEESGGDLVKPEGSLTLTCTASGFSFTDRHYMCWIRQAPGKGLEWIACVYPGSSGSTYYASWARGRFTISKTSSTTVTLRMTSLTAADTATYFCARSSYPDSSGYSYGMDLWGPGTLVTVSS VL: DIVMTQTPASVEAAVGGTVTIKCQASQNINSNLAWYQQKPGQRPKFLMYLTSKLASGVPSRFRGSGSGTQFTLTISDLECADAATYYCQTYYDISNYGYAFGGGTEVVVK: -0.01
anti-ZIKV antibody 270-12 (antibody, V domains shown, also called clone 270-12) VH: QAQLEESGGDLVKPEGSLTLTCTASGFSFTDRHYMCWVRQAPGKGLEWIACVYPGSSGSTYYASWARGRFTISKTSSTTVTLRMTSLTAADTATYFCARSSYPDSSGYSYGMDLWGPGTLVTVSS VL: DIVMTQTPASVEAAVGGTVTIKCQASQDINSNLAWYQQKPGQRPKFLMYLTSKLASGVPSRFRGSGSGTQFTLTISDLECADAATYYCQTYYDISNYGYAFGGGTEVVVKG: 0
anti-ZIKV antibody 289-3 (antibody, V domains shown, also called clone 289-3; subclone 289-3) VH: QEELEESGGDLVKPGASLTLTCKASGFSFSSGAYICWVRQAPGKGPEWIACIYTGDGRTYYANWAKRRFTISSSSSTTVALEMPSLTDADTATYFCARAIAVGAGYGVGNYFTLWGPGTLVTVSS VL: DIVMTQTPSSVSAAVGGTVTINCHASENIYGYLSWYQQKPGQPPKLLIYKASTLASGVPSRFKGSGAGTQFTLTITALECADAATYYCQSYYTSSSNADGSENAFGGGTEVVVEG: -0.01

Q) Quote response of 2nd mAb reported for anti-ZIKV antibody 11-3 (antibody, V domains shown, also called clone 11-3) VH: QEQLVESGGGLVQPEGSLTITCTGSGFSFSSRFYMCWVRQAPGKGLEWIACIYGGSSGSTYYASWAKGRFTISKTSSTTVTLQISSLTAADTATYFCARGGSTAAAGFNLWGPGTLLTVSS VL: DVVMTQTPASVSATVGGTVTIKCQASEDIYNLLAWYQQKPGQPPKLLIYYASTLASGVPSRFKGSGSGTEFTLTISDLECADAATYYCQCNDYGGTYVPNAFGGGTEVVVKG please.
A) 0.44

Q) Quote response of 2nd mAb reported for anti-ZIKV antibody 78-2 (antibody, V domains shown, also called clone 78-2) VH: QQQLVESGGGLVKPGASLTLNCKASGLDFSTNSYMCWVRQAPGKGLEWIACIYVGDSSEIYYASWAKGRFTISKTSSTTVTLQMTSLTAADTATYFCARDLPSFTAPYAGYLRLWGPGTLVTVSS VL: QPVLTQPPSLSASLGTTARLTCTLRTGYNVGDYPLLWLQRVPGRPPRYLLTYHTEEFKHQGSGVHSRFSGSKDASENAGVLSISGLQPEDEANYYCYTVHATESSLHYVFGGGTQLTVTG please.
A) 0.33
